What follows is literature data on pIC50 for SYK kinase (Homo sapiens, UniProt P43405).
// pIC50 is dimensionless: -log10 of concentration (M)

COCCOCCOCCOc1cc(Nc2cc(Oc3ccc(NC(=O)Nc4cc(C(C)(C)C)cc(P(C)(C)=O)c4OC)c4ccccc34)ccn2)cc(OC)c1	7.28

Query: # return recorded pIC50 for input CCC(O)(CC)c1ccc(-c2cc3nccnc3c(OC[C@@H]3CN(S(C)(=O)=O)CCO3)n2)cc1
Response: 7.46

Query: # return recorded pIC50 for input N[C@H]1CCCC[C@H]1Nc1cc2cn[nH]c(=O)c2c(Nc2ccc3cccnc3c2)n1
Response: 7.38

* * *

What follows is literature data on IC50 for SYK kinase (Homo sapiens, UniProt P43405).

Solved entries (count: 5):
Cc1cc(C)cc(Nc2nc3c(NCCCN(C)C)nccn3n2)c1	3000 to 50000 nM
COc1ccc2nc(Nc3cnn(CC(=O)N(C)C)c3)c3n[nH]cc3c2c1	100 to 1000 nM
CC(C)(C)n1cc(Nc2nc3cc(S(C)(=O)=O)ccc3c3cn[nH]c23)cn1	100 to 1000 nM
c1nn(C2CC2)cc1Nc1nc(-c2ccc3cn[nH]c3c2)nc2cn[nH]c12	< 10 nM
CN1CCN(C2CCN(c3ccc(Nc4nc5ccc(S(C)(=O)=O)cc5c5cn[nH]c45)cc3)CC2)CC1	< 10 nM

Query: For SYK kinase (Homo sapiens, UniProt P43405), give IC50 of the listed compound: Cc1ccc(-c2cc3nccc(Nc4ccc5[nH]ccc5c4C)c3o2)cc1
Response: 3000 to 50000 nM

* * *

What follows is literature data on IC50 for SYK kinase (Homo sapiens, UniProt P43405).
Classify: 1 when IC50 is strictly less than 20 nM; 0 when IC50 is not.

CC(C)(C)c1cc(NC(=O)Nc2ccc(Oc3ccnc(Nc4ccc5scnc5c4)n3)c3ccccc23)n(-c2ccc(OCCN3CCOCC3)cc2)n1	0
CC(C)c1cc(NC(=O)Nc2ccc(Oc3cc(Nc4ccc5[nH]ncc5c4)ncn3)c3ccccc23)n(-c2ccc(=O)n(CCO)c2)n1	1

Query: Input CN(C)c1ccc(-c2cc3nccnc3c(OC[C@@H]3CN(C(=O)[C@H]4CCOC4)CCO3)n2)cc1 ; condition: IC50 strictly below 20 nM. Does it hold?
Response: 0

Query: Input CN(C)c1ccc(-c2cc3nccnc3c(OC[C@@H]3CN(S(C)(=O)=O)CCO3)n2)cc1 ; condition: IC50 strictly below 20 nM. Does it hold?
Response: 1

Query: Input N[C@H]1CCCC[C@H]1Nc1nc(-c2cc(F)cs2)c2c(c1F)CNC2=O ; condition: IC50 strictly below 20 nM. Does it hold?
Response: 1

Query: Input COc1ccc(-c2cc3nccnc3c(OC[C@@H]3CN(C(N)=O)CCO3)n2)cc1OC ; condition: IC50 strictly below 20 nM. Does it hold?
Response: 0

Query: Input COCCOCCOCCOc1cc(Nc2nccc(Oc3ccc(NC(=O)Nc4cc(C(C)(C)C)cc(NS(C)(=O)=O)c4OC)c(Cl)c3Cl)n2)cc(OC)c1 ; condition: IC50 strictly below 20 nM. Does it hold?
Response: 0

* * *

What follows is literature data on IC50 for SYK kinase (Homo sapiens, UniProt P43405).

Solved entries (count: 5):
COCCn1ncc(Nc2nc(-c3ccco3)nc3cn[nH]c23)c1F	100 to 1000 nM
COc1cc(-c2cc3nccc(-c4cccc(OCCN)c4)c3o2)cc(OC)c1OC	< 300 nM
CS(=O)(=O)N1CCO[C@H](COc2nc(-c3ccc(N4CCN(CCO)CC4)cc3)cc3nccnc23)C1	21 nM
CC(=O)N1CCC(n2cc(Nc3nc(-c4ccoc4)nc4cn[nH]c34)cn2)CC1	< 10 nM
c1cn2cc(-c3cnc4c(c3)NCCO4)nc(Nc3ccc(N4CCN5CCOC[C@@H]5C4)cc3)c2n1	3 nM

Query: For SYK kinase (Homo sapiens, UniProt P43405), give IC50 of the listed molecule: COCCCn1cc(Nc2nc3ccc(S(C)(=O)=O)cc3c3cn[nH]c23)cn1
Response: 10 to 100 nM

Query: For SYK kinase (Homo sapiens, UniProt P43405), give IC50 of the listed molecule: CC(C)c1ccc(-c2cc3nccnc3c(OC[C@@H]3CN(C(=O)CO)CCO3)n2)cc1
Response: 63 nM

Query: For SYK kinase (Homo sapiens, UniProt P43405), give IC50 of the listed molecule: Cc1nc2cc(Nc3nc4c(-c5ccc(S(C)(=O)=O)cc5)nccn4n3)ccc2[nH]1
Response: 300 to 3000 nM

* * *

What follows is literature data on IC50 for SYK kinase (Homo sapiens).

Solved entries (count: 2):
c1coc(-c2nc(Nc3cnn(C4CCOCC4)c3)c3[nH]ncc3n2)n1	100 to 1000 nM
COc1cccc2nc(Nc3ccc(N4CCN(C)CC4)nc3)c3[nH]ncc3c12	100 to 1000 nM

Query: For SYK kinase (Homo sapiens), give IC50 of the listed compound: Cc1ccc(-n2nc(C(C)(C)C)cc2NC(=O)Nc2ccc(OCc3ccnc(Nc4cnccn4)c3)c3ccccc23)s1
Response: > 16500 nM

* * *

What follows is literature data on IC50 for SYK kinase (Homo sapiens).

COc1ccc(C(C)C)cc1-c1cnc2[nH]c(=O)n([C@@H](CO)C(C)C)c2n1	5100 to 10000 nM
COc1cc(Nc2nc3c(N4CCCC4c4ccccn4)nccn3n2)cc(OC)c1 (stereo not shown)	300 to 3000 nM
COc1ccc(Nc2nc(-c3ccoc3)nc3cn[nH]c23)cc1OC	100 to 1000 nM

Query: For SYK kinase (Homo sapiens), give IC50 of the listed compound: C#CC(C)(C)c1cc(NC(=O)Nc2ccc(Oc3ccnc(Nc4ccccc4)n3)c3ccccc23)n(-c2ccc(C)cc2)n1
Response: > 1000 nM

* * *

What follows is literature data on IC50 for UniProt P43405.

Solved entries (count: 6):
NC(=O)c1cnc(Nc2ccc3c(c2)NC[C@H](OCC2CCCCO2)CO3)nc1NC1CC1 (stereo partly drawn)	10 to 100 nM
C#CC(C)(C)c1cc(NC(=O)Nc2ccc(Oc3ccnc(Nc4cc(OC)cc(OCCN5CCOCC5)c4)n3)c3ccccc23)n(-c2ccc(C)cc2)n1	31 nM
C[C@@H](O)C(=O)N1CCO[C@H](COc2nc(-c3ccc(N(C)C)cc3)cc3nccnc23)C1	67 nM
CN1CC(=O)Nc2cccc(c2)Nc2ncc(F)c(n2)Nc2ccc3c(c2)NC(=O)C(C)(O3)C1=O (racemic)	< 300 nM
CC1C(=O)NCCN1c1ncc(-c2cccc(Nc3nccc(N4CCCC4)n3)c2)o1 (stereo not drawn)	100 to 1000 nM
COc1cc(-c2cc3nccc(-c4cccc(C(=O)N[C@@H]5CCCC[C@@H]5NC(C)=O)c4)c3o2)cc(OC)c1OC	3000 to 50000 nM

Query: For UniProt P43405, give IC50 of the listed molecule: CC1(C)C(=O)Nc2cc(Nc3nc4c(-c5cc6n(n5)CCOC6)nccn4n3)ccc21
Response: 300 to 3000 nM

Query: For UniProt P43405, give IC50 of the listed molecule: Cn1cc(-c2nccn3nc(Nc4ccc5cn[nH]c5c4)nc23)cn1
Response: 100 to 300 nM

Query: For UniProt P43405, give IC50 of the listed molecule: COCCOCCOCCNC(=O)c1ccc(Nc2cc(Oc3ccc(NC(=O)Nc4cc(C(C)(C)C)cc(C(N)=O)c4OC)c4ccccc34)ccn2)cc1OC
Response: 315 nM

* * *

What follows is literature data on IC50 for SYK kinase (Homo sapiens, UniProt P43405).

Solved entries (count: 10):
CS(=O)(=O)Nc1cccc(-c2nc(Nc3ccc4c(c3)NC(=O)CCC4)c3[nH]ncc3n2)c1	100 to 1000 nM
c1coc(-c2nc(Nc3ccc(N4CCOCC4)cc3)c3[nH]ncc3n2)c1	10 to 100 nM
Brc1cccc(Nc2nccc(-c3nccs3)n2)c1	< 500 nM
CN(c1nccn2nc(Nc3ccc4c(c3)NC(=O)C4(C)C)nc12)C1CCNCC1	100 to 300 nM
Cn1c(=O)c(Nc2ccc(N3CCOCC3)cn2)cc2c(F)c(-c3cc[nH]n3)c(F)cc21	54.6 nM
COc1cc(Nc2nc3c(-c4cc(OC)cc(OC)c4)nccn3n2)cc(OC)c1	< 300 nM
COc1cc(Nc2nc3cncc(-c4ccc(NS(C)(=O)=O)cc4)n3n2)ccc1N1CCN(C)CC1	1000 to 5000 nM
NS(=O)(=O)N1CCO[C@H](COc2nc(-c3ccc(N4CCCC4)cc3)cc3nccnc23)C1	43 nM
CC1(c2nc(Nc3ccc(N4CCOCC4)cc3)c3[nH]ncc3n2)CC1	100 to 1000 nM
COc1cccc(-c2nc(Nc3cnn(C4CC4)c3)c3[nH]ncc3n2)c1	100 to 1000 nM

Query: For SYK kinase (Homo sapiens, UniProt P43405), give IC50 of the listed molecule: COc1cc(Nc2nc3c(N4CCNC(c5ccccc5)C4)nccn3n2)cc(OC)c1 (stereo not shown)
Response: 3000 to 50000 nM

Query: For SYK kinase (Homo sapiens, UniProt P43405), give IC50 of the listed molecule: COc1cc(-c2cc3nccc(-c4cccc(C(=O)NCc5cc[nH]n5)c4)c3o2)cc(OC)c1OC
Response: < 300 nM

Query: For SYK kinase (Homo sapiens, UniProt P43405), give IC50 of the listed molecule: CC(=O)N(C)c1ccc(Nc2nc(NC(C)(C)C)c3nc[nH]c3n2)cc1
Response: 14 nM
